From: patent US9695133B2

# protocolSummary: in vivo
# measurementContext: male, C57BL6/j, mouse, iv, 20 mg/kg
endpointLabel: half-life

structureSmilesString	testResult
CC(C)Oc1ccc(CN2CCNCC2)cc1-n1c(CN2CCN(C(=O)COc3ccc(Cl)cc3)CC2)nc2ccccc2c1=O	6.41 h

----------
# protocolSummary: Plasma pharmacokinetics after single IV and PO dose
# Type: in vivo, male C57BL6/j mice
# measurementContext: male, C57BL6/j, mouse; plasma, IV 20 mg/kg

compound	unitString	half-life
CC(C)Oc1ccc(CN2CCNCC2)cc1-n1c(CN2CCN(C(=O)COc3ccc(Cl)cc3)CC2)nc2ccccc2c1=O [PE]	h	2.84
